The reported measurements were obtained from PubChem BioAssay (NCATS).

System: N140
Test: qHTS profiling for inhibitors of Plasmodium falciparum proliferation (AID 504749); note: nearly all actives have a fitted effect of over 60% in size; note: potency is the fitted concentration of half-maximal effect
Conditions: P. falciparum in erythrocytes, SYBR Green DNA, 72 h; series mostly up to 28.7 µM
Procedure: NIH National Institute of Allergy and Infectious Diseases [NIAID] NIH Chemical Genomics Center [NCGC] […] Because mature erythrocytes lack DNA, only Plasmodium-derived DNA is detected. NCGC Assay Protocol Summary: The SYBR Green viability assay was adapted from a method described previously (Plouffe et al., 2008). […] The following morning, fluorescence intensity at 485(14) nm excitation and 535(25) nm emission wavelengths was measured on an EnVision (Perkin Elmer) plate reader. […]
Inconclusive results are not listed. Calls of active or inactive are those of the source. Calls come from the whole dose curve; as a rule, active = well fitted inhibition curve with a large enough effect; inconclusive = small, poorly fitted or top-dose-only effect; inactive = flat fitted curve, though single readings scatter.
METRIC NAME: Potency

Consider the reported Potency for these compounds:
CCCCCCCCCCCC(=O)N(CCO)CCO; inactive
CC12CCC(C1)C(C)(C)C2=O (stereo not drawn); inactive
O=[n+]1ccn([O-])c2ccccc21; inactive
CCN(CC)CCCC(C)Nc1cc(/C=C/c2ccccc2Cl)nc2cc(Cl)ccc12 (stereo not drawn); 3.16 µM (active)
OC1OC[C@@H](O)[C@H](O)[C@@H]1O (stereo partly drawn); inactive

Could you now consider this next compound?
The compound listed as CC(=O)Nc1ccc(NC(=S)NC(=O)c2ccc(C(C)(C)C)cc2)cc1 shows Potency equal to inactive
